Tested target: human ΔF508-CFTR (Homo sapiens, UniProt P13569, DEL508-508)
Sequence (P13569 with tags, fused parts or gaps DEL508-508): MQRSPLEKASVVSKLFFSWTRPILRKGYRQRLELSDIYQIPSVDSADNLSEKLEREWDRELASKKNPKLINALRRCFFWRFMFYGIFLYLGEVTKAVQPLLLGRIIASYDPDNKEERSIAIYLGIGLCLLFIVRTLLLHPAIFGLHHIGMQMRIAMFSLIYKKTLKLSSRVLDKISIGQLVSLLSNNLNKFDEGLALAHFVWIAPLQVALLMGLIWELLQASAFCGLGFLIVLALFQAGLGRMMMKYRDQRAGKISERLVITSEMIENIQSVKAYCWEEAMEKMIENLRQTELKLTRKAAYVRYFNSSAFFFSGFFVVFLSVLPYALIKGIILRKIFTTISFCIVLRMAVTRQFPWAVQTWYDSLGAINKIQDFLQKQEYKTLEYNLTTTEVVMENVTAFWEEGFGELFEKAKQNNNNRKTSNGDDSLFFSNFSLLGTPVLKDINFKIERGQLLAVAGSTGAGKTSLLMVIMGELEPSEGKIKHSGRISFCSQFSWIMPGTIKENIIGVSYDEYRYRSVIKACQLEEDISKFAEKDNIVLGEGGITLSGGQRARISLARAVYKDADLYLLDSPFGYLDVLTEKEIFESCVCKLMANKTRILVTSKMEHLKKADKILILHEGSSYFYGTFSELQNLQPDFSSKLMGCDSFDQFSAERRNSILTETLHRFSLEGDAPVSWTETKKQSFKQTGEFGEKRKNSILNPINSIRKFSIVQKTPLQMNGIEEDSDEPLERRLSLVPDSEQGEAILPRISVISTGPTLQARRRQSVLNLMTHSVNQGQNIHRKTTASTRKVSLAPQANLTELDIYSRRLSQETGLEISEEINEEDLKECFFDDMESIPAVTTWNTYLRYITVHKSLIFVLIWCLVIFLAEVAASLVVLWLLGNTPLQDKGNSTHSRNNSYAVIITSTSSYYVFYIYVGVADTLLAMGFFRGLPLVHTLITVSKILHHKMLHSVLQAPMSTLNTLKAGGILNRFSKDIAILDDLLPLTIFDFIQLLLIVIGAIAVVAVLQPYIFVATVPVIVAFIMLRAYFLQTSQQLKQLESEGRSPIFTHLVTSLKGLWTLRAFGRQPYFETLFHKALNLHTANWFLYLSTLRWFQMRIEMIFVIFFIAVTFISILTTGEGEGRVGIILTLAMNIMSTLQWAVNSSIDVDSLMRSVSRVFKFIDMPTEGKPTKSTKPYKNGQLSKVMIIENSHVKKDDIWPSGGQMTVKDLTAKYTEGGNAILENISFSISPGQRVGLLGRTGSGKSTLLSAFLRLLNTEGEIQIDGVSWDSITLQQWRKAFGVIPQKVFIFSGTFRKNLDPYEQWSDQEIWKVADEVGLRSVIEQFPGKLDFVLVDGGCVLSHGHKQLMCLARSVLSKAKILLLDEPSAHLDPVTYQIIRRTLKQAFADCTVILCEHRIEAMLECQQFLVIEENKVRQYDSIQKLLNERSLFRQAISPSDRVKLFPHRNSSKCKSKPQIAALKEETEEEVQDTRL
Assay procedure: CFTR-YFP High Throughput Assay (YFP halide flux in FRT cells)
Test parameters: FRT cells expressing human ΔF508-CFTR and YFP; forskolin stimulated
Method: Assays for Detecting and Measuring the Effect of Compounds on dF508-CFTR Channels CFRT-YFP High Throughput Assay: The following protocol is designed to selectively screen small molecule compounds for F508del CFTR corrector activities in the HTS YFP flux assay. In this protocol, the cells are incubated with testing compounds for 24 hours, washed with PBS, stimulated with forskolin and a standard potentiator, and read on a 384-well HTS plate reader, such as the Hamamatsu FDDD-6000. […]
For each record, write down the corresponding EC50.

| Compound | Tested target | Endpoint value |
| --- | --- | --- |
| CCN(C(=O)c1nn(-c2ccc(C)cc2)c(=O)c2[nH]c3ccccc3c12)c1cccc(Cl)c1 | human ΔF508-CFTR (Homo sapiens, UniProt P13569, DEL508-508) | < 10 µM |
| CCN(C(=O)Cn1ncc2c(c1=O)c1ccccc1n2Cc1ccccc1)c1ccc2c(c1)OC(F)(F)O2 | human ΔF508-CFTR (Homo sapiens, UniProt P13569, DEL508-508) | < 10 µM |
| CCN(C(=O)Cn1nc(C(=O)Nc2ccccn2)c2ccccc2c1=O)c1ccc2c(c1)OC(F)(F)O2 | human ΔF508-CFTR (Homo sapiens, UniProt P13569, DEL508-508) | > 20 µM |
| COc1ccc2c(-c3ccc(S(N)(=O)=O)cc3)nn(CC(=O)N(c3ccc4c(c3)OC(F)(F)O4)C(C)C)c(=O)c2c1 | human ΔF508-CFTR (Homo sapiens, UniProt P13569, DEL508-508) | < 10 µM |
| CCN(C(=O)c1nn(C2CCCCC2)c(=O)c2c1c1ccccc1n2C)c1cccc(Cl)c1 | human ΔF508-CFTR (Homo sapiens, UniProt P13569, DEL508-508) | < 10 µM |

Please state EC50 for every compound in the list that follows.
1. CCN(C(=O)c1nn(-c2ccccc2F)c(=O)c2c1c1ccccc1n2C)c1ccccc1 [Example 127]
2. CCN(C(=O)c1nn(-c2nccs2)c(=O)c2c1c1ccccc1n2C)c1ccccc1
3. CCN(C(=O)c1nn(-c2ccc(OC)cc2)c(=O)c2c1c1ccccc1n2C)c1ccccc1

< 10 µM
< 10 µM
< 10 µM

Please state EC50 for every compound in the list that follows.
1. CCN(C(=O)c1nn(-c2ccccc2)c(=O)c2c1c1ccccc1n2C)c1ncnc2c1cnn2C
2. CCN(C(=O)Cn1nc(-c2ccc(C(N)=O)cc2)c2ccc(OC)cc2c1=O)c1ccc2c(c1)OC(F)(F)O2
3. CCN(C(=O)Cn1nc(Cc2cccnc2)c2ccccc2c1=O)c1ccc2c(c1)OC(F)(F)O2
4. CCN(C(=O)c1nn(-c2ccc(C)cc2)c(=O)c2c1c1ccccc1n2C(C)C)c1ccccc1
5. CCc1ccc(N(CC)C(=O)Cn2nc(Cc3cccnc3)c3ccc(C)cc3c2=O)cc1
6. CCN(C(=O)c1nn(-c2cccnc2)c(=O)c2c1c1ccccc1n2C)c1ccccc1
7. CCN(C(=O)Cn1nc(Cc2cccnc2)c2ccc(C)cc2c1=O)c1ccc2c(c1)OC(F)(F)O2
8. CCc1ccc(N(CC)C(=O)Cn2nc(Cc3cccnc3)c3ncccc3c2=O)cc1

1: 10 to 20 µM; 2: < 10 µM; 3: < 10 µM; 4: > 20 µM; 5: < 10 µM; 6: < 10 µM; 7: < 10 µM; 8: 10 to 20 µM

Please state EC50 for every compound in the list that follows.
1. CCN(C(=O)Cn1nc(Cc2cccnc2)c2cc(C)ccc2c1=O)c1ccc2c(c1)OC(F)(F)O2
2. CCN(C(=O)Cn1nc(-c2ccc(S(N)(=O)=O)cc2)c2ccc(OC)cc2c1=O)c1ccc(OC(F)F)cc1

< 10 µM
> 20 µM
